Test: yeast display, Sf9 membrane polyspecificity reagent, FACS + sequencing; frameworks hold sequencing errors
quantity_measured: polyreactivity (PSR sort gate)

Field: example entries. Status: answers known.
QVQLVESGGGLVQAGCSLRLSWAASGFTFTYYAMGWYRQEPGKERELVAAISDGGASTYYSDSVKGRFTISRDNAKNTVYLQMNSLKPEDTAVYYCAAETYWPWKDDYWGQGTQVTVSS ... high polyreactivity
QVQLVESGGGLVQAGGSLRLSCAASGFIFSYYAMGWYRQAPGKERELVAAISSSGGTTYADSVKGRFTISRDNAKNTVYLQMNSLKPEDTAVYYCARVQYWFYKPMYYWGQGTQVNVSS ... high polyreactivity
QVQLLESGGGLVQAGGSLRLSCAASGSTLKLNAMGWYRQAPGKDRELVAAITRSGGSTNYADSVKGRFTISRDNAKNTVSLQMNSLKPEDTAVYDCAADVLWDEFGYWGQGTQVTVSS ... low polyreactivity
QVQLAESGGGLVQAGGSLRLSCAASGSTFVWYAMGWYRQAPGKEWELVAVIDWSGGSTSYADSVKGRFTISRDNAKNTVYFQMNSLKPEDTAVYYCAADYGHYYGLYYWGQGTQVTVSS ... low polyreactivity
QVQLVESGGGLVQAGGSLRLSCAASGRTFYKNAMGWYRQAPGKEREFVASISVSGGRTYYADSVKGRFTISRDNAKNTVYLQMNSLKPEDTAVYYCNARASPLSQRDYWGQGTQVTVSS ... low polyreactivity

For QVQLQESGGGLVQEGGSLRLSCAESGNISPQADMGWYRQAPGKERELVASIGTGGTTNYADSVTGRFTISRDNAKNTVYLQMNSLKPDDTAFYYCAAVRYEYNPYDYWGQGTQVTVSS the sequence record lists polyreactivity (PSR sort gate) as low polyreactivity

The value of polyreactivity (PSR sort gate) measured for the sequence QVQLVESGGGLVQAGGSLRLSCAASGSIYVNTMGWYRQAPGKEREFVAAITRRGGSTYYADSVKGRFTISRDNAKNTVYLQMNSLKPEDTAVYYCNADNRYSAHDYWGQGTQVTVSS turned out to be high polyreactivity

Sample QVQLVESGGGLVQAGGSLRLSCAASGSIFPYYAMGWYRPAPGKERELVAVISRGGGRTYYADSVKGRFTISRDNAKITVYLQMNSLKPEDTAVYYCYAGYPYGGDYWGQGTQVTVSS ; polyreactivity (PSR sort gate) observed: high polyreactivity

Briefly, polyreactivity (PSR sort gate) measured for QVQLEESGGGLVQAGGSLRLSFAASGYTFDPYDMGWYRQAPGKERELVASISWSGGDTYYADSVKGRFTISRDNAKNTVYLQMNSLKPEDTAVYYCAADRYIPRSIIMDYWGQGNQVTVSS : low polyreactivity

Briefly, polyreactivity (PSR sort gate) measured for QVQLEESGGGLVQAGGSLRLSCAASGSIFPFYAMGRYRQAPGKERELVAAISDRGGSTYYADSVKGRFTISRDNAKNTVYLQMNSLKPEDTAVYYCAKGGGVSQGYTDEYDYWGQGTQVTVSS : low polyreactivity

Documented polyreactivity (PSR sort gate) of QVQLVDSGGGLVQAGGSLRLSCAASAFIFTRYAMGWYRQAPGKERELVAAISWIGTSTYYADSVKGRFTISRDNAKNTVYLQMNSLKPEDTAVYYCAKRSTSQSLQGVYWGLGTQVTVSS : high polyreactivity

Looking up QVQLVESGGGLVQAGGSLRLSCAASGNIFFGNAMGWYRQAPGKERELVAVISKRGGSTYYADSVKGRFTISRDNAKNTVYLQMNSLKPEDTAVYYCAKVPTSRGNQLQQDGTKYDYWGQGTQVTVSS , I found its polyreactivity (PSR sort gate) recorded as high polyreactivity

Entry QVQLVESGGGLVQAGGSLRLSCAASGSILYVYAMGWYRPAPGKETELVAVITSGGSTNYADSVKGRFTISRDNAKNTVYLQMNSLKPEDTAVYYCAADPYSVYGGDYWGKGTQVTVSS , polyreactivity (PSR sort gate) reported as low polyreactivity

Value of measured polyreactivity (PSR sort gate) for the entry QVQLVESGGGLVQAGGSLRLSCAASGSIFNLYAMGWYRQAPGKERELVAAINWSGGSTYYADSVKGRFTISRDNAKNTVYLQMNSLKPEDTAVYYCAADAYSTYYGYEGDYWGQGTQVTVSS : low polyreactivity

// polyreactivity (PSR sort gate) value for QVQLVESGGGLVQAGGSLRLSCAASGRTFVTYAMGWYRQAPGKERELVAGIRRGGSTYYADSVKGRFTISRDNAKNTVYLQMNSLKPDDPAVYDCAKTFYAHRAYTSYTARPYDYWGQGTQVTVSS : high polyreactivity

Please fill in: polyreactivity (PSR sort gate) reported for QVQLVESGGGLVQAGGSLRLSCAASGSIFSAYAMGWYRQAPGKERELVAAITKSSVTYYADSVKGRFTISRDNAKNTVYLQMNSLKPEDTAVYYCAAYSPRPSDLYSPIAYYYWGQGTQVTVSS = low polyreactivity

Entry under test: QVQHVESGGGLVQAGGSLRLSCAASGRTVYGYTMGWDRQAPGKERELVAAISYSGDSTYYADSVKGRFTISRDTAKNTVYFPMNSLKPEYTAVYYCAVRRYARFNYHYWGQGPQVTVSS . Its polyreactivity (PSR sort gate) was high polyreactivity

Record summary for QVQLVESGGGLVQAGVSLRLSCAASGSTLISNTMGWNRQAPWKERELVAAITRTGGRTYYADSVKGRFTSSRDTAKNTVDLPMNSLKPEDTAVYYCARYGGYLSLKYDYWGQGTQVTVAS : reported polyreactivity (PSR sort gate) = high polyreactivity
